Test name: BSK_BT_PBMCCytotoxicity: PBMC Cytotoxicity Assessment in the BioMAP Diversity Plus: BT Assay (AID 2284225);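 also: PBMC viability measured by Alamar Blue dye reduction fluorescence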
Recorded conditions: primary human B cells with PBMC
The source made the active and inactive calls. The calls were made as follows: active = hit-call score of the fitted dose curve at least 0.9, where 1 is the maximum; inactive = score below 0.9.
Choose the fitting class; nothing outside 1 for active, -1 for inactive is accepted.

INPUT: # outcome recorded in this test, key = `CCOP(=S)(S)OCC`
OUTPUT: -1

INPUT: # outcome recorded in this test, key = `N#Cc1c(-c2ccc(Cl)cc2)[nH]c(C(F)(F)F)c1Br`
OUTPUT: 1

INPUT: # outcome recorded in this test, key = `O=c1ssc(Cl)c1Cl`
OUTPUT: 1

INPUT: # outcome recorded in this test, key = `COP(=O)(O)OC`
OUTPUT: -1

INPUT: # outcome recorded in this test, key = `CC(C)Nc1ccc(Nc2ccccc2)cc1`
OUTPUT: 1

INPUT: # outcome recorded in this test, key = CCOP(=S)(NC(C)C)Oc1ccccc1C(=O)OC(C)C (configuration not stated)
OUTPUT: -1

INPUT: # outcome recorded in this test, key = `Cc1ccc2c(c1N)C(=O)c1ccccc1C2=O`
OUTPUT: -1

INPUT: # outcome recorded in this test, key = CCCCC(CC)COP(=O)(Oc1ccccc1)Oc1ccccc1 (configuration not stated)
OUTPUT: 1

INPUT: # outcome recorded in this test, key = `CCCCOCCOP(=O)(OCCOCCCC)OCCOCCCC`
OUTPUT: -1

INPUT: # outcome recorded in this test, key = `Nc1ccc([N+](=O)[O-])cc1Cl`
OUTPUT: -1

INPUT: # outcome recorded in this test, key = `CCOP(=S)(OCC)SCS(=O)(=O)CC`
OUTPUT: -1

INPUT: # outcome recorded in this test, key = `O=C(O)C=CC(F)(C(F)(F)F)C(F)(F)F`
OUTPUT: -1

INPUT: # outcome recorded in this test, key = `N#Cc1cc([N+](=O)[O-])ccc1N`
OUTPUT: -1

INPUT: # outcome recorded in this test, key = O=P(OCC(Br)CBr)(OCC(Br)CBr)OCC(Br)CBr (configuration not stated)
OUTPUT: -1

INPUT: # outcome recorded in this test, key = `COP(N)(=S)OC`
OUTPUT: -1

INPUT: # outcome recorded in this test, key = CC(O)C(F)(F)C(F)(F)F (configuration not stated)
OUTPUT: -1

INPUT: # outcome recorded in this test, key = `CCOP(=S)(OCC)SCSc1ccc(Cl)cc1`
OUTPUT: -1

INPUT: # outcome recorded in this test, key = `O=C(O)C(F)(F)OC(F)(F)C(F)(F)OC(F)(F)C(=O)O`
OUTPUT: -1

INPUT: # outcome recorded in this test, key = O=S1(=O)OCC2C(CO1)C1(Cl)C(Cl)=C(Cl)C2(Cl)C1(Cl)Cl (configuration not stated)
OUTPUT: 1

INPUT: # outcome recorded in this test, key = `O=C(O)C(F)(F)C(F)(F)C(=O)O`
OUTPUT: -1

INPUT: # outcome recorded in this test, key = `CCOP(=S)(OCC)SCn1nnc2ccccc2c1=O`
OUTPUT: -1

INPUT: # outcome recorded in this test, key = `Cc1c([N+](=O)[O-])cc2c(c1[N+](=O)[O-])C(C)(C)CC2(C)C`
OUTPUT: 1

----------
Read-out: Monokine induced gamma interferon (MIG), CXCL9 (gene 4283)
Test name: BSK_3C_MIG: BioMAP Diversity Plus: 3C Assay for Monokine induced gamma interferon (MIG) Biomarker Activity (AID 2283021)
Recorded conditions: primary human endothelial cells (HUVEC); actives raise or lower the signal
The source made the active and inactive calls. Rule for the calls: active = hit-call score of the fitted dose curve at least 0.9, where 1 is the maximum; inactive = score below 0.9.
Choose the fitting class; nothing outside active, inactive is accepted.

INPUT: # outcome recorded in this test, key = `c1ccc2c(c1)sc1ccccc12`
OUTPUT: inactive

INPUT: # outcome recorded in this test, key = `C=CC(=O)OCC(F)(F)C(F)F`
OUTPUT: inactive

INPUT: # outcome recorded in this test, key = `O=C(O)C(F)(F)C(F)(F)C(=O)O`
OUTPUT: inactive

INPUT: # outcome recorded in this test, key = `CCOP(=S)(OCC)SCSCC`
OUTPUT: inactive

INPUT: # outcome recorded in this test, key = CCC1(c2ccccc2)C(=O)N=C(O)NC1=O (stereo not drawn)
OUTPUT: inactive

INPUT: # outcome recorded in this test, key = COC(=O)C(F)(F)C(F)(F)OC(F)(C(F)(F)F)C(F)(F)OC(F)=C(F)F (stereo not drawn)
OUTPUT: inactive

INPUT: # outcome recorded in this test, key = `OCC(F)(F)OC(F)(F)C(F)(F)OC(F)(F)CO`
OUTPUT: inactive

INPUT: # outcome recorded in this test, key = `CCNc1nc(Cl)nc(NC(C)(C)C)n1`
OUTPUT: inactive

INPUT: # outcome recorded in this test, key = `N#Cc1cc([N+](=O)[O-])ccc1N`
OUTPUT: inactive

INPUT: # outcome recorded in this test, key = `COCCOCCO`
OUTPUT: inactive

INPUT: # outcome recorded in this test, key = `O=C(O)C(F)(F)OC(F)(F)C(F)(F)OC(F)(F)F`
OUTPUT: inactive

INPUT: # outcome recorded in this test, key = CC(O)C(F)(F)C(F)(F)F (stereo not drawn)
OUTPUT: inactive

INPUT: # outcome recorded in this test, key = CC(Cc1ccc(OCC(=O)O)cc1)NCC(O)c1csc(C(F)(F)F)n1 (stereo not drawn)
OUTPUT: inactive

INPUT: # outcome recorded in this test, key = `O=S(=O)(F)C(F)(F)C(F)(F)C(F)(F)C(F)(F)C(F)(F)C(F)(F)C(F)(F)C(F)(F)F`
OUTPUT: inactive

INPUT: # outcome recorded in this test, key = `COP(=O)(CCC(=O)NCO)OC`
OUTPUT: inactive

INPUT: # outcome recorded in this test, key = OCC1CO1 (stereo not drawn)
OUTPUT: inactive

INPUT: # outcome recorded in this test, key = `ClC(Cl)=C(c1ccc(Cl)cc1)c1ccccc1Cl`
OUTPUT: active

INPUT: # outcome recorded in this test, key = `Nc1cc2c3c(c1)C(c1ccccc1)=N[C@@H](NC(=O)c1cccnc1)C(=O)N3CC2`
OUTPUT: inactive

INPUT: # outcome recorded in this test, key = `CCCCOCCOP(=O)(OCCOCCCC)OCCOCCCC`
OUTPUT: inactive

INPUT: # outcome recorded in this test, key = FC(F)(F)C(F)(C(F)(F)F)C(F)(F)C(F)(F)CC1CO1 (stereo not drawn)
OUTPUT: inactive

INPUT: # outcome recorded in this test, key = `Cc1cccc(N)c1`
OUTPUT: inactive

INPUT: # outcome recorded in this test, key = CC(Cl)CN(C)C (stereo not drawn)
OUTPUT: inactive

INPUT: # outcome recorded in this test, key = `O=C(O)C=CC(F)(C(F)(F)F)C(F)(F)F`
OUTPUT: inactive

INPUT: # outcome recorded in this test, key = `CN(C)C(=O)Cl`
OUTPUT: inactive

INPUT: # outcome recorded in this test, key = `CSC(C)(C)C=NO`
OUTPUT: inactive

INPUT: # outcome recorded in this test, key = CCCCC(CC)COC(=O)c1c(Br)c(Br)c(Br)c(Br)c1C(=O)OCC(CC)CCCC (stereo not drawn)
OUTPUT: inactive

INPUT: # outcome recorded in this test, key = `COP(=O)(O)OC`
OUTPUT: inactive

INPUT: # outcome recorded in this test, key = ClC1=C(Cl)C2(Cl)C3C(Cl)C(Cl)CC3C1(Cl)C2(Cl)Cl (stereo not drawn)
OUTPUT: active

----------
Read-out: Decorin, DCN (gene 1634)
Test name: BSK_MyoF_Decorin: BioMAP Diversity Plus: MyoF Assay for Decorin Biomarker Activity (AID 2284265)
Recorded conditions: primary human lung fibroblasts
Activity calls are given as the source filed them. How the source made its calls: active means hit-call score of the fitted dose curve at least 0.9, where 1 is the maximum; inactive means score below 0.9.
Choose the fitting class; nothing outside active, inactive is accepted.

INPUT: # outcome recorded in this test, key = `O=C(O)C(F)(F)C(F)(F)C(=O)O`
OUTPUT: inactive

INPUT: # outcome recorded in this test, key = `O=C(O)C(F)(F)OC(F)(F)C(F)(F)OC(F)(F)F`
OUTPUT: inactive

INPUT: # outcome recorded in this test, key = `CCOP(=S)(OCC)SCS(=O)(=O)CC`
OUTPUT: inactive

INPUT: # outcome recorded in this test, key = CC(Cl)CN(C)C (centres undefined)
OUTPUT: inactive

INPUT: # outcome recorded in this test, key = `O=S(=O)(F)C(F)(F)C(F)(F)C(F)(F)C(F)(F)C(F)(F)C(F)(F)C(F)(F)C(F)(F)F`
OUTPUT: inactive

INPUT: # outcome recorded in this test, key = CCOP(=S)(NC(C)C)Oc1ccccc1C(=O)OC(C)C (centres undefined)
OUTPUT: inactive

INPUT: # outcome recorded in this test, key = `C=CC(=O)OCC(F)(F)C(F)F`
OUTPUT: inactive

INPUT: # outcome recorded in this test, key = O=C(O)C(F)(OC(F)(F)C(F)(F)C(F)(F)F)C(F)(F)F (centres undefined)
OUTPUT: inactive

INPUT: # outcome recorded in this test, key = `ClC(Cl)=C(c1ccc(Cl)cc1)c1ccccc1Cl`
OUTPUT: active

INPUT: # outcome recorded in this test, key = CCCCC(CC)COC(=O)c1c(Br)c(Br)c(Br)c(Br)c1C(=O)OCC(CC)CCCC (centres undefined)
OUTPUT: inactive

INPUT: # outcome recorded in this test, key = `O=C(O)C(F)(F)OC(F)(F)C(F)(F)OC(F)(F)C(=O)O`
OUTPUT: inactive

INPUT: # outcome recorded in this test, key = `OCC(F)(F)OC(F)(F)C(F)(F)OC(F)(F)CO`
OUTPUT: inactive

INPUT: # outcome recorded in this test, key = `C=CC(=O)OCC(CC)(COC(=O)C=C)COC(=O)C=C`
OUTPUT: active

INPUT: # outcome recorded in this test, key = `Nc1ccc([N+](=O)[O-])cc1Cl`
OUTPUT: inactive

INPUT: # outcome recorded in this test, key = `O=c1ssc(Cl)c1Cl`
OUTPUT: active

INPUT: # outcome recorded in this test, key = `CCOP(=S)(OCC)SCSc1ccc(Cl)cc1`
OUTPUT: inactive

INPUT: # outcome recorded in this test, key = O=S1(=O)OCC2C(CO1)C1(Cl)C(Cl)=C(Cl)C2(Cl)C1(Cl)Cl (centres undefined)
OUTPUT: inactive

INPUT: # outcome recorded in this test, key = COC(=O)C(F)(F)C(F)(F)OC(F)(C(F)(F)F)C(F)(F)OC(F)=C(F)F (centres undefined)
OUTPUT: inactive

INPUT: # outcome recorded in this test, key = `COP(N)(=S)OC`
OUTPUT: inactive
